meta.source: patent US20240228562A1

Please respond with reported pKd for every item in the list.
# Test Target: T1, recombinant human CTGF-Fc protein (Creative Biomart) (human)
# T1 construct: Bought; also called human CTGF with a human IgG1 Fc Tag
# T1 sequence (chain, as listed by the source limits assumed): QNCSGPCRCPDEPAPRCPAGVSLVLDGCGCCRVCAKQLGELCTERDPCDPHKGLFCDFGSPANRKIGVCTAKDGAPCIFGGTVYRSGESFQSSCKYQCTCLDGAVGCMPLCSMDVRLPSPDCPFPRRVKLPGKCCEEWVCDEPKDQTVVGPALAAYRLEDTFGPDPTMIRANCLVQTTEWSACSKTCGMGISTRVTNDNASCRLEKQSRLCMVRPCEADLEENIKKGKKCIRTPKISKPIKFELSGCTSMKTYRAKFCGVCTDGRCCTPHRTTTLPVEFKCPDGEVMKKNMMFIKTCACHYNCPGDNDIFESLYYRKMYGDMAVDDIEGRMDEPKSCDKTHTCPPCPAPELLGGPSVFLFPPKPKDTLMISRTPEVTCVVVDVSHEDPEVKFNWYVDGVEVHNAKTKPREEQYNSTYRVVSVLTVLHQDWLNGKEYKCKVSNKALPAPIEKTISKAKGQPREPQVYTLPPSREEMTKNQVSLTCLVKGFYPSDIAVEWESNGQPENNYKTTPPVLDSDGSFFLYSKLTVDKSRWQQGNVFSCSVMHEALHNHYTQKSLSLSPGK
# Experiment: SPR (Biacore)
Reminder that pKd is minus the log10 of a molar concentration.

Could you tell me which pKd is on file for lipocalin mutein of SEQ ID NO: 28 (designed binder, also called hNGAL mutein; not shown: C-terminal His-tag) QDSTSDLIPAPPLSKVPLQQNFQDNQFQGKWYVVGLAGNYRLREDKDPSKMGATIYELKEDKSYDVTQVQFDDKKCLYVIETFVPGSQPGEFTLGAIKSYPGLTSQLVRVVSTNYNQHAMVFVKKVWPNLEYFQIVLYGRTKELTSELKENFIRFSKSLGLPENHIVFPVPIDQCIDG ?
9.29

Try the binder lipocalin mutein of SEQ ID NO: 10 (designed binder, also called hNGAL mutein; not shown: C-terminal His-tag) QDSTSDLIPAPPLSKVPLQQNFQDNQFQGKWYVVGLAGNAILREDKQPAKMFATIYELKEDKSYDVTSVRFEAKSCSYTIKTFVPGSQPGEFTAGNIKSAPGQTSTLVRVVSTNYNQHAMVFWKSVAGTRESFNIALYGRTKELTSELKENFIRFSKSLGLPENHIVFPVPIDQCIDG
10.48
